Reference for the values: ChEMBL document CHEMBL1148022

# run-description: Elimination half life in rat at 1 mg/kg, iv and 1 mg/kg, po
# Assay type: ADME, organism-based
# experimental-setup: in vivo
assay-metric: half-life (min)
Please respond with the number in min and leave the unit unwritten.

Asked: Quick one: half-life for O=C(NC1CCN(C(=O)CCc2cccnc2)CC1)C(c1ccccc1)C1CCC(F)(F)CC1 (configuration not stated) ?
Given back: 18

Asked: Would you mind doing O=C(NC1CCN(C(=O)CCc2cccnc2)CC1)C(c1cc(F)c(F)c(F)c1)C1CCCCC1 (configuration not stated) as well?
Given back: 18

Asked: Would you mind doing O=C(NC1CCN(C(=O)CCc2cccnc2)CC1)C(c1ccccc1)c1ccccc1 as well?
Given back: 6

Asked: Would you mind doing O=C(NC1CCN(C(=O)CCc2cccnc2)CC1)C(c1ccc2ccccc2c1)C1CCCCC1 (configuration not stated) as well?
Given back: 30

Asked: Would you mind doing O=C(NC1CCN(C(=O)CCc2cccnc2)CC1)C(CC1CCCCC1)c1ccccc1 (configuration not stated) as well?
Given back: 42

Asked: Would you mind doing O=C(NC1CCN(C(=O)/C=C/c2cccnc2)CC1)C(c1ccccc1)C1CCCCC1 (configuration not stated) as well?
Given back: 18

Asked: Would you mind doing O=C(NC1CCN(C(=O)CCc2ccc(F)nc2)CC1)C(c1ccccc1)C1CCCCC1 (configuration not stated) as well?
Given back: 18

Asked: Would you mind doing O=C(NC1CCN(C(=O)CCc2cccnc2)CC1)C(c1ccc(Cl)cc1)C1CCCCC1 (configuration not stated) as well?
Given back: 18

Asked: Would you mind doing O=C(NC1CCN(C(=O)CCc2cccnc2)CC1)C(C1CCCCC1)C1CCCCC1 as well?
Given back: 12

Asked: Would you mind doing O=C(NC1CCN(C(=O)CCc2cccnc2)CC1)C(c1ccc(Cl)cc1)c1ccc(Cl)cc1 as well?
Given back: 24

Asked: Would you mind doing Cc1cncc(/C=C/C(=O)N2CCC(NC(=O)C(c3ccccc3)C3CCCCC3)CC2)c1 (configuration not stated) as well?
Given back: 18

Asked: Would you mind doing O=C(NC1CCN(C(=O)CCc2cccnc2)CC1)C(c1ccccc1)C1CCCCC1 (configuration not stated) as well?
Given back: 12

###

# Tested on: Hepatocyte
# run-description: Clearance in rat hepatocytes
# Format: ADME, cell-based, Liver
Binary classification by CL, with 30 µL/min as an inclusive lower bound for criterion met; all other cases are criterion not met.

Asked: Assess whether reported CL for O=C(NC1CCN(C(=O)/C=C/c2cccnc2)CC1)C(c1ccccc1)C1CCCCC1 (configuration not stated) sits at 30 µL/min or higher.
Given back: criterion not met

Asked: Would you mind doing O=C(NC1CCN(C(=O)CCc2cccnc2)CC1)C(c1cc(F)c(F)c(F)c1)C1CCCCC1 (configuration not stated) as well?
Given back: criterion not met

Asked: Would you mind doing Cc1cncc(/C=C/C(=O)N2CCC(NC(=O)C(c3ccccc3)C3CCCCC3)CC2)c1 (configuration not stated) as well?
Given back: criterion not met

Asked: Would you mind doing O=C(NC1CCN(C(=O)CCc2cccnc2)CC1)C(CC1CCCCC1)c1ccccc1 (configuration not stated) as well?
Given back: criterion met

Asked: Would you mind doing O=C(NC1CCN(C(=O)CCc2cccnc2)CC1)C(c1ccc(Cl)cc1)C1CCCCC1 (configuration not stated) as well?
Given back: criterion not met

Asked: Would you mind doing O=C(NC1CCN(C(=O)CCc2cccnc2)CC1)C(c1ccccc1)C1CCCCC1 (configuration not stated) as well?
Given back: criterion met

Asked: Would you mind doing O=C(NC1CCN(C(=O)CCc2cccnc2)CC1)C(c1ccccc1)c1ccccc1 as well?
Given back: criterion not met
